The entries below are paired with their reported EC50.
# system: T1, recombinant human CD73-His extracellular domain protein (soluble dimer) (human, UniProt P21589 27-547)
# T1 construct: Purified as a dimer; also called huCD73; soluble recombinant human CD73
# T1 sequence: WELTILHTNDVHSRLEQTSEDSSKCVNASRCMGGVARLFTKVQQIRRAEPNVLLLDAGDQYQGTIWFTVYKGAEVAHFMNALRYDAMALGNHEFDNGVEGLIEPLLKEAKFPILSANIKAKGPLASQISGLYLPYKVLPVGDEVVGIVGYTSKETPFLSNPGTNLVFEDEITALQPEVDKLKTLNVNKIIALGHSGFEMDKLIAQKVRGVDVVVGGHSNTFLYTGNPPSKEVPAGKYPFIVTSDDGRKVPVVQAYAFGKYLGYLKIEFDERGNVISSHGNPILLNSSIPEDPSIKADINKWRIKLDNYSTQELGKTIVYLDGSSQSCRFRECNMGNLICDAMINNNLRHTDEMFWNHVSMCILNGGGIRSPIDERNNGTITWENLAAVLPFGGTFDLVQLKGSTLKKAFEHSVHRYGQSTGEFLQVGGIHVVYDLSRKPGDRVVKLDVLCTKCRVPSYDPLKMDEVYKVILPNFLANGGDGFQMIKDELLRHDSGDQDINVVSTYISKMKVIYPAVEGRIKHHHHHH
# test-summary: ELISA, plate-coated recombinant human CD73
Your answer should be a number followed by the unit of measure.

// below: answered binders
antibody 11E1 (antibody, human IgG1, V domains shown, Produced as chimeric human IgG1 with heavy chain N297Q (Kabat EU numbering); also called 1E11) VH: EIQLQQSGPELVKPGASVKVSCKASGYAFTSYNMYWVKQSHGKSLEWIGYIDPYNGGTSYNQKFKGKATLTVDKSSSTAYMHLNSLTSEDSAVYYCARGYGNYKAWFAYWGQGTLVTVSA VL: DAVMTQTPKFLLVSAGDRVTITCKASQSVTNDVAWYQQKPGQSPKLLIYYASNRYTGVPDRFTGSGYGTDFTFTISTVQAEDLAVYFCQQDYSSLTFGAGTKLELK	0.012 µg/mL
antibody 6E1 (antibody, human IgG1, V domains shown, Produced as chimeric human IgG1 with heavy chain N297Q (Kabat EU numbering)) VH: EFQLQQSGPELVKPGASVKVSCKASGYAFTSYNMYWVKQSHGKRLEWIGYIDPYNGGSSYNQKFKGKATLTVDKSSSTAYMHLNNLTSEDSAVYYCARGYNNYKAWFAYWGQGTLVTVSA VL: SIVMTQTPKFLLVSAGDRVTITCKASQSVTNDVAWYQQKPGQSPKLLIYYASNRYTGVPDRFTGSGYGTDFTFTISTMQAEDLAVYFCQQDYSSLTFGAGTKLELK	0.014 µg/mL
antibody 3C12 (antibody, human IgG1, V domains shown, Produced as chimeric human IgG1 with heavy chain N297Q (Kabat EU numbering); RTVAAP)) VH: QIQLQQSGPELVKPGASVKVSCKASGYAFASYNMNWVKQSHGKSLDWIGYIDPYNGGSSYNLTFKGKATLTVDKSSTTAYMHLNSLTSEDSAVYYCARGYGNYKAWFAYWGQGTLVTVSA VL: DVVMTQTPKFLLVSAGDRVTITCKASQSVSNDVAWYQQKPGQSPKLLIYYASTRYTGVPDRFTGSGYGTDFTFTISTVQAEDLAVYFCQQDYSSLTFGAGTKLELKR	0.014 µg/mL

# input for lookup
[in] Given antibody 8C7 (antibody, human IgG1, V domains shown, Produced as chimeric human IgG1 with heavy chain N297Q (Kabat EU numbering); RTVAAP)) VH: EVQLQQSGPELVKPGASVKVSCKASGYAFASYNMNWVKQSHGKSLDWIGYIDPYNGGSSYNLTFKGKATLTVDKSSTTAYMHLNSLTSEDSAVYYCARGYGNYKAWFAYWGQGTLVTVSA VL: SIVMTPTPKFLLVSAGDRVTITCKASQSVSNDVAWYQQKPGQSPKLLIYYASTRYTGVPDRFTGSGYGTDFTFTISTVQAEDLAVYFCQQDYSSLTFGAGTKLELKR , state its recorded EC50.
[out] 0.009 µg/mL
